- ASSAY TEXT: yeast display, Sf9 membrane polyspecificity reagent, FACS + sequencing; frameworks hold sequencing errors
READOUT: polyreactivity (PSR sort gate)

These solved cases illustrate the format of a correct answer.
HVQLQESGGCLVQAGGSLRLSCAARGSNSRLDSMGWNRQASGKVRELVAAIDNGSTTYYADSVKGRLTISRDNAKYSVYLQMNSLKAEDTAVYFCAAVRGGGGTHAYWGQGTQVTVSG : low polyreactivity
QLQLVESGGGLVQAGGSLRLSCAASGLTFNTYAMGWSRQAPAKERELVAAITKGGGRTYYADSVKGRFTISRDNAKNTVYLQMNSLKPEDTAVYYCAVVSWYRYSRYENDYWGQGTQVTVSS : high polyreactivity
QVQLVESGGGLVQAGGSLRLSCAASGSIFLAYAMGWYRQAPGKEREFVAAISFSDGSTYYADSVKGRFTISRDNAKNTVYFQMNSLKPEDTAVYYCNKGASPDDYDYWGQGTQVTVSS : low polyreactivity
QVQLVESGGGLVQAGGSLRLSCAASGITFKRYAMGWYIQAPGKERELVAAISDIGGRTYYADSVKGRFTISRDNAKNTVYLQMNSLKPEDTEVYYCAADYYSPVDWYYYWGQGTQVTVSS : high polyreactivity

# get_value(readout='polyreactivity (PSR sort gate)', item= QVQLVESGGGLVQAGGSLRLSCAASGNTFTYYALGWYRQAPGTEREVVASISSGGSTNYADSVKGRFTISRDNAKNTVYLQMNRLKPEDTAVYYCARGWSFSTRRFQHTRYYYWGQGTQVTVSS ) high polyreactivity

---

- ASSAY TEXT: yeast display, Sf9 membrane polyspecificity reagent, FACS + sequencing; frameworks hold sequencing errors
READOUT: polyreactivity (PSR sort gate)

Completed entries (count: 4):
QVQLVESGGGLVQAGGSLRLSCAASGRTFRYYAIGWYRQAPGKERELVAAISSSGASTYDAESVKGRFTISRDNAKYTVYLQMNSLKPEDTAVYYCRSGILFYSRYDYWGQGTQVTVSS : low polyreactivity
QDQIVESGGGLVQAGGSLRLSCAASGSIFVIKAMGWYRQAPGKERELVASIRGRTGSTNYADSVKGRFTISRDNAKNTVYLQMNSLKPVDTAVYYGAADRKGPFDYWGLGTQVTVSS : high polyreactivity
QVQLVESGGGLVQAGGSLRLSCAASGSTFSYYAIGWYRQAPGKERELVAAISRRGGSTYYADSVKGRFTISRDNAKNTVYLQMNRLKPEDTAVYYCAADYYFSSRIEYYYWGQGTQVTVSS : high polyreactivity
QVQLVESGGGLVQAGGSLRLSCAASGGTFTAYAMGWYRQAPGKERELVAAISASGDSTYYADSVKGRFTISRDNAKNTVYLQMNSLKPEDTAVYYCNADWYRTGRRGSDYWGQGTQVTVSS : low polyreactivity

I would be grateful if you could share the reported polyreactivity (PSR sort gate) for QVQLVESGGGLVQAGGSLRLSCAASGSIFGVYAMGWYRQAPGKERELVAAIDSGSSTDYADSVKGRFTISRDNAKNTVYLQMNSLKPEDTAVYYCYPLDLAPVDYWGQGTQVTVSS . low polyreactivity

Which polyreactivity (PSR sort gate) value belongs to QVQLVESGGGVVQAGGSLRLSCAASGSTFRTNAMGWYRQAPGKERELVAAITSTGGSTYYADSVKGRFTISRDNAKNTVYLQMNSLKPEDTAVYYCAAYYVPGYYYWGQGTQVTVSS ? high polyreactivity

Can you share its polyreactivity (PSR sort gate)? I mean this sequence: QVQLVESGGGLVQAGGSLRLSCAASGRTLNAYAMGWYRHAPGKERELVAAITWDDGSTYYAHSVKGRFTISRDNAKNTVSLQMNSLKPEDSAVYYCAAYAYNAIEYGYWGQGTQVNVSS low polyreactivity

// lookup polyreactivity (PSR sort gate) for QVQLVESGGGLVQAGGSLRLSCAASGRIFTYYTMAWYRQAPGKERELVAAISWSGGRTYYADSVKGRFTISRDNAKNTVYLQMNSLKPEDTAVYYCARRRAVRFYYWGQGTQVTVSS high polyreactivity

Find the recorded polyreactivity (PSR sort gate) belonging to QVQLVESGGGLVQAGGSLRLSCAASGFIIPVYAMGWYRQAPGKERELVAAITYSGARTYYADSVKGRFTISRDNAKNTVYLQMNSLKPEDTAVYYCAAAPGYLKYSPGHYGYNYWGQGTQVTVSS and report it. high polyreactivity

Entry under review: QVQLVESGGGLVQAGGSLRLSCAASGNIFRRYAMGWYRQAPGKERELVAAITWSGGSTYYADSVKGRFTISRDNAKNTVYLQMNSLKPEDTAVYYCAARRFWHYGYPGAYIGFGYWGQGTQVTVSS . Reported polyreactivity (PSR sort gate)? high polyreactivity

---

- ASSAY TEXT: yeast display, Sf9 membrane polyspecificity reagent, FACS + sequencing; frameworks hold sequencing errors
READOUT: polyreactivity (PSR sort gate)

The following sequences have reported results that may help.
QVQLVESGGGLVQAGGSLRLSCAASGRTFRVYAMGWYRPAPGKERELVATITSSGGSTYYADSVKGRFTISRDNAKNTVYLQMNSLKPEDTAVYYCNVSVYYNYDSSYYYWGQGTQVTVSS : low polyreactivity
QVQLGESGGGLVQAGGSLRLSCAASGRIFSAYAMGWSRQEPGKERELVAAITRSGGSTYYADSVKGRFTISRDNAKNTVYLQMNSLKPEDTAVYYCAAGYFVSDAWSWYHWVEHGYWGQGTQVTVSS : high polyreactivity
QVQLVESGGGLVQAGGSLRLSCAASGRIFDDNAMGWYRQAPGKERELVASITVSTGSTYYADSVKGRFTISRDNAKNTVYLQMNSLKPEDTAVSYCAAPYITPYGTYVFSSDYWGQGTQVTVSS : low polyreactivity
QVQLVESGGGLVQAGGSLRLSCAASGRTFRGYAMGWYRQAPGKERELVAGIRRGGSTNYADSVKGRFTISRDNSKNTVSLQMNSLKPEDTAVYYCAKTYTVSQPSLRTYYYWGQGTQVTVSS : high polyreactivity

--- query ---
Value lookup for polyreactivity (PSR sort gate); key = QVQLVESGGGLVQAGGSLRLSCAASGRIFQGYVMGWYRQAPGKERELVAAITTGGSTYYADSVKGRFTISRDNAKNTVYLQMNSLKPEDTAVYYCNAVVYVSGYNPYIFGYWGQGTQVTVSS low polyreactivity

---

- ASSAY TEXT: yeast display, Sf9 membrane polyspecificity reagent, FACS + sequencing; frameworks hold sequencing errors
READOUT: polyreactivity (PSR sort gate)

Recorded polyreactivity (PSR sort gate), per entry:
QVQLVESGGGLVQAGGSLRLSCAASGGIFPDYAMGWYRQAPGKERELVAVISDSGGSTYYADSVKGRFTISRDNAKNTVYLQMNSLKPEDTAVYYCSAETEWYYGYYEYWGQGTQVTVSS : high polyreactivity
QVQLVESGGGLVQAGGSLRLTSAASGFIFWPYLMGWYRQAPGKDRELVAAISQGDGSTYYADSVKVRFTISRDNAKNTVYLQMNSLKGEDTAVYYCAADVTVAWYPVYPGFYYWGQGTQVTVSS : low polyreactivity
QVQLVESGGGLVQAGGSLRLSCAASGRIFSTYAMGWYRQAPGKERELVAAITNSAGSTYYADSVKGRFTISRDNAKNTVYLHMNSLKPEDTALYYCATGWSRISYGFDYWGQGTLVTVSS : low polyreactivity
QVQLVESGGGLVQAGGSLRLSCAASGFIFPYYAMGWYRQAPGKERELVAAITSSGGSTYYADSVKGRFTISRDTAKNTVYLQMTSLKPEDNAVYYCNAYVRRTRDYDYWGQGTQVTVSS : high polyreactivity

Would you kindly share the measured polyreactivity (PSR sort gate) for QVQLVESGGGLVQAGGSLRLSCAASGIIFYFYAMGWDSQAPGKERELVAAISGTGGRTYYADSVKGRFTISRDNAKNTVYLQMNSLKPEDTAVYYCAADRGGLRWFWQVLYDYWGQGTQVTESS ? low polyreactivity

---

- ASSAY TEXT: yeast display, Sf9 membrane polyspecificity reagent, FACS + sequencing; frameworks hold sequencing errors
READOUT: polyreactivity (PSR sort gate)

QVQHVESGGGLVQAGGSLRLSCAASGFTFRRYAMGWYRQAPGKERELVAAISINGGSTYYADSVKGRFTISRDNAMNTVYLQMNSLKPEDTAVYYCNKGSVRGEYDYWGQGTLVTVSS : high polyreactivity
QVQLVESGGGLVQAGGSLRLRCAASGFIFGPNAMGWYRQAPGKEREFDAAINWSGGTTYYADSVKGRFTISRDNAKNTVYLQMNSLKPEDTAVYYCAASLYSDVAAVATYGYYWGQGTQVTVSS : low polyreactivity
QVQLVESGGGLVQAGGSLRLSCAASGRIFHLYAMGWYRQAPGKERELVAAITFSGGSTYYADSVKGRFTISRDNAKNTVYLQMNSLKPEDTAVYYCAKRSFYLFSSRLPFKYDYGGQGTQVTVSS : low polyreactivity
QVQLVESGGGLVQAGGSLRLSCAASGYIFATYAMGWYRQAPGKERELVAAISWSGGRTYYADSVKGRFTISRDNAKNTVYLQMNSLKPEDTAVYYCNKATSRRVYGYDYWGQGTQVTVSS : high polyreactivity
QVQLVESGGGLFQAGGSLRVSCAASGSTFYLYAMGWSRQAPGKEREWVAAISRRGGTTNYADSVKGRFTISRDNAKNSVYLQMNSLKPEDTAVYDCGADYQSVGGAEYDYWGQGTQVTVSS : high polyreactivity

Which value of polyreactivity (PSR sort gate) has been reported for QLQLQESGRGLVQAGGSLRLSCAASGNIVDADIMGWYRQAPGKERELVASITDGGSTNYADSVKGRFTISRDNAKNTVYLQMNSLKTEDTAVYYCAAIAYPVIPTYFDYDSEYFYWGQGTQVTVSS in the records? low polyreactivity

# lookup: polyreactivity (PSR sort gate) of QVQLVESGGGLVQAGGSLRLSCAASGSIFVPNAMGWSRQALGKERELVAAITYSGVDTYYADSVKGRFTISRDNAKNTVYLQMNSLKPEDTAVYYCAADNGRVGYDYWGQGTQVTVSS low polyreactivity

I am curious: what polyreactivity (PSR sort gate) value has been reported for QVQLVESGGGLVQAGGSLRLSCAASGRIFKYYAMGWYRQAPGKERELVAAISRSGGRTYYADSVKGRFTISRDNAKNTVYLQMNSLKPEDTAVYYCNARVYSGHNYWGQGTQVTVSS ? high polyreactivity

Name the recorded polyreactivity (PSR sort gate) for QVQLVESGGGLVQAGGSLRLSCAASGSIFGGYAMGWYRQAPVKERELVARIRVSGGRTYYSDSVKGRFTISRDNAKNTVYLQRNSLKPEDTAVYYCNALLAGRRVARGYDSWGQGTQVTVSS . high polyreactivity

Values were extracted from the nanobody polyreactivity screen of Harvey et al. (2022).
